system: COLO 205; assay: NCI tumour cell line growth inhibition, 48 h
The source made the active and inactive calls. Rule as the data show it: active = GI50 up to about 1.1 µM and inactive = higher.
Select the matching outcome among yes = active, no = inactive

molecule	category.label
c1ccc2cc(C3NCCc4nc[nH]c43)ccc2c1 (stereo not drawn)	no
Oc1ccc(Cl)cc1Sc1cc(Cl)ccc1O	no
COc1cc2c([C@@H](OC(=O)c3ccccc3)c3ccc4c(c3)OCO4)nccc2c(OC)c1OC	no
COc1cc(/C=N/N=C(\N)NO)ccc1O	no
CC[C@]12C=CCN3CC[C@@]4(c5cc(Br)c(OC)c([N+](=O)[O-])c5N(C)[C@H]4[C@@](O)(C(=O)OC)[C@@H]1OC(C)=O)[C@@H]32	no

Name the outcome recorded for CCn1ncc2c(=O)n3ncn(-c4ccc(Br)cc4)c3nc21 in the assay.
no

Hi, do you know how Cc1ccc(S(=O)(=O)Nn2c(S)c(C#N)c(-c3ccc([N+](=O)[O-])cc3)c(C#N)c2=O)cc1 came out in this test?
no

Please let me know the test result on file for COc1ccc(Cl)cc1NC(=O)O/N=C(\Cl)C(C)C .
no

# fetch the recorded call for O=C1Cc2cn[nH]c2-c2ccccc2N1 here
no

# fetch the recorded call for CC(C)[C@@H]1CC[C@@H](C)C[C@H]1OC(=O)c1c2n(c3ccccc13)C[C@H]1OC(C)(C)O[C@@H]21 here
no

Every entry's value here was drawn from ChEMBL document CHEMBL1201862.
